Task for the reader: assign each of the following molecules its reported solubility (mole fraction).
Study Conditions: in 1,4-dioxane, 303.15 K
Numbers only.

O=C1OC(=O)c2cc(Cl)ccc21 | 0.166

The molecule identified as O=C1OC(=O)c2c(Cl)cccc21 registered its solubility (mole fraction) at 0.328

---

Task for the reader: assign each of the following compounds its reported solubility (mole fraction).
Study Conditions: in acetone, 308.15 K
Numbers only.

O=C1OC(=O)c2cc(Cl)ccc21 | 0.369

Here is another compound to look at.
The compound identified as O=C1OC(=O)c2c(Cl)cccc21 registered its solubility (mole fraction) at 0.261

---

Study Conditions: in ethyl acetate, 298.15 K
Readout: solubility (mole fraction)
Give bare numbers.

O=C1OC(=O)c2c(Cl)cccc21 | 0.133

Here is another molecule to look at.
The molecule identified as O=C1OC(=O)c2cc(Cl)ccc21 registered its solubility (mole fraction) at 0.228

---

Study Conditions: in 1,4-dioxane, 318.15 K
Task for the reader: assign each of the following compounds its reported solubility (mole fraction).
Give bare numbers.

O=C1OC(=O)c2cc(Cl)ccc21 | 0.298

The compound identified as O=C1OC(=O)c2c(Cl)cccc21 registered its solubility (mole fraction) at 0.42

---

Study Conditions: in acetone, 313.15 K
Task for the reader: assign each of the following molecules its reported solubility (mole fraction).
Answers are plain numbers.

For every item below, please supply its solubility (mole fraction).
1. O=C1OC(=O)c2c(Cl)cccc21
2. O=C1OC(=O)c2cc(Cl)ccc21

1. 0.291
2. 0.427

---

Study Conditions: in ethyl acetate, 283.15 K
Readout: solubility (mole fraction)
Numbers only.

O=C1OC(=O)c2cc(Cl)ccc21 | 0.178

Here is another compound to look at.
The compound identified as O=C1OC(=O)c2c(Cl)cccc21 registered its solubility (mole fraction) at 0.107

---

Study Conditions: in ethyl acetate, 288.15 K
Task for the reader: assign each of the following compounds its reported solubility (mole fraction).

O=C1OC(=O)c2c(Cl)cccc21 | 0.112

The compound identified as O=C1OC(=O)c2cc(Cl)ccc21 registered its solubility (mole fraction) at 0.184
